# experimentalSystem: TIE2 (Homo sapiens, UniProt Q02763)
# Sequence (Q02763 23-1124): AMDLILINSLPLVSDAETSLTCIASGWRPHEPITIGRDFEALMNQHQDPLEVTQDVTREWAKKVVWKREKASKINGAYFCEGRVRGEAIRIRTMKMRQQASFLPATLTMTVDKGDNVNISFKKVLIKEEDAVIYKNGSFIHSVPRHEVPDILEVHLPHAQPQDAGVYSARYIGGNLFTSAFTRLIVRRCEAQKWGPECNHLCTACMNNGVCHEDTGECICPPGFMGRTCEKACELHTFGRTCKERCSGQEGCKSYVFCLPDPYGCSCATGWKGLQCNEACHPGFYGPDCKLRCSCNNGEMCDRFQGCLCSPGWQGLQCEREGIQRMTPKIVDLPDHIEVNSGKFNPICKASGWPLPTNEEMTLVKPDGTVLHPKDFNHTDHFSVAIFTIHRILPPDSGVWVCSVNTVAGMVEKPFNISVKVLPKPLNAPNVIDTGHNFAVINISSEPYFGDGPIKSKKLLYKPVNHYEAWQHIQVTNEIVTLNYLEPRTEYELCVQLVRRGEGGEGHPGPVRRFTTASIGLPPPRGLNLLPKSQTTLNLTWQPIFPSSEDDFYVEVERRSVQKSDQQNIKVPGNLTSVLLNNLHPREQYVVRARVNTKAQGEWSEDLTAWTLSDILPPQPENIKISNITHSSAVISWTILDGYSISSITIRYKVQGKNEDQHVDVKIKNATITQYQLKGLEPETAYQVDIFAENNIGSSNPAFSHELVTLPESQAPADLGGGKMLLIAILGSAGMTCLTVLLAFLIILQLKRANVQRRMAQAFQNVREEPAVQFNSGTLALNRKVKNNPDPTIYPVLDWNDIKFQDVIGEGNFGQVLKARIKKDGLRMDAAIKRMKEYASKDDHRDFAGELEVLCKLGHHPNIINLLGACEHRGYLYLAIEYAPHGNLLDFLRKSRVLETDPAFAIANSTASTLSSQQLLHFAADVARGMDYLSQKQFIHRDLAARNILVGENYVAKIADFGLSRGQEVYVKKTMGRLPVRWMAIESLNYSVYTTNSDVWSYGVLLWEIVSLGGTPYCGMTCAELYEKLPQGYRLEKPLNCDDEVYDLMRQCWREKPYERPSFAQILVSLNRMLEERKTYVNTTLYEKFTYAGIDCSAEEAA
# testSettings: 10 μM
Catalogue of Percent control readings, one per entry.
Could you give me the number in %? Just the number is fine.

# example entries with known answers
- compound: "Cc1ccc(NC(=O)c2ccc(CN3CCN(C)CC3)cc2)cc1Nc1nccc(-c2cccnc2)n1 [Imatinib, reference compound]"
  Percent control (%): 100
- compound: "COc1cc2c(Nc3ccc(Br)cc3F)[n+]([Pt-2]3([Cl])[NH2+]C4CCCCC4[NH2+]3)cnc2cc1OCC1CCN(C)CC1 (stereo not shown)"
  Percent control (%): 49
- compound: "Cc1ccc(NC(=O)c2ccc(CN3CCN(C)CC3)cc2)cc1Nc1nccc(-c2cccnc2)[n+]1[Pt-2]1([Cl])[NH2+]C2CCCCC2[NH2+]1 (stereo not shown)"
  Percent control (%): 94

Shifting focus to the compound that follows.
-- ask Look up Percent control for this compound: C#Cc1cccc(Nc2c3cc(OCCOC)c(OCCOC)cc3nc[n+]2[Pt@SP2-2]([NH3+])([NH3+])[Cl])c1 [2a, cisplatin-erlotinib]
-- reply 94

----------
# experimentalSystem: PYK2 (Homo sapiens)
# Construct: purchased DiscoveRx KINOMEscan
# Sequence (Q14289 whole entry): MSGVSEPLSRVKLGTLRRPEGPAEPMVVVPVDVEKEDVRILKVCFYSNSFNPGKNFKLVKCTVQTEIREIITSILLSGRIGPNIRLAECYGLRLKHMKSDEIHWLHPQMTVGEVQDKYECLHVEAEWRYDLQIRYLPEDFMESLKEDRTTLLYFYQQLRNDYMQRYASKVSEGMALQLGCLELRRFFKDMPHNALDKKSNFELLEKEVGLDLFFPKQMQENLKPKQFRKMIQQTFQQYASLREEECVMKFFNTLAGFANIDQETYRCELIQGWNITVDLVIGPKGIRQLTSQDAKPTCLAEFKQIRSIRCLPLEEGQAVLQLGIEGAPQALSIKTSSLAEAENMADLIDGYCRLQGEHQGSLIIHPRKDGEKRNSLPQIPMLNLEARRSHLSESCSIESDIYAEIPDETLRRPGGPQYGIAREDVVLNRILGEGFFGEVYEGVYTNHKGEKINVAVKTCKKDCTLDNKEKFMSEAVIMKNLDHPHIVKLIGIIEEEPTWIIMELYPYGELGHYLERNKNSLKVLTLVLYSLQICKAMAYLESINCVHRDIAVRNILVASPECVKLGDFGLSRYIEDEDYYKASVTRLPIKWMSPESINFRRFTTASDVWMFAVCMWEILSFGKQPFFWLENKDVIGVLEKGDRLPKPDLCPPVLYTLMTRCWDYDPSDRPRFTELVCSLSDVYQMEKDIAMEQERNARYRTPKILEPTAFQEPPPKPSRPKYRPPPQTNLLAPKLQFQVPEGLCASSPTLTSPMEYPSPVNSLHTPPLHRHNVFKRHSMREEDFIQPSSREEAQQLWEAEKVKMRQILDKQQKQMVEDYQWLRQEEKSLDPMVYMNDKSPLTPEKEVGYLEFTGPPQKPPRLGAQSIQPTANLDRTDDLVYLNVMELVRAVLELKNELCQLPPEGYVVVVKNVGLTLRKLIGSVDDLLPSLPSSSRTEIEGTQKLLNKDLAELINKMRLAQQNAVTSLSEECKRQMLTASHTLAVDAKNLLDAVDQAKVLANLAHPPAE
# Format: binding
# testSettings: PYK2; 10 μM
The molecules listed here are annotated with their Percent control.
# unit: % | format: bare number

Example molecules with recorded Percent control:
- molecule: "Cc1ccc(NC(=O)c2ccc(CN3CCN(C)CC3)cc2)cc1Nc1nccc(-c2cccnc2)n1 [Imatinib, reference compound]"
  experimentalSystem: "PYK2 (Homo sapiens)"
  measureUnit: "%"
  Percent control: 100
- molecule: "COc1cc2c(Nc3ccc(Br)cc3F)[n+]([Pt-2]3([Cl])[NH2+]C4CCCCC4[NH2+]3)cnc2cc1OCC1CCN(C)CC1 (stereo not shown) [3b, oxaliplatin-vandetanib]"
  experimentalSystem: "PYK2 (Homo sapiens)"
  measureUnit: "%"
  Percent control: 80
- molecule: "Cc1ccc(NC(=O)c2ccc(CN3CCN(C)CC3)cc2)cc1Nc1nccc(-c2cccnc2)[n+]1[Pt-2]1([Cl])[NH2+]C2CCCCC2[NH2+]1 (stereo not shown) [1b, oxaliplatin-imatinib]"
  experimentalSystem: "PYK2 (Homo sapiens)"
  measureUnit: "%"
  Percent control: 92

Attention now turns to another entry.
-- ask // query Percent control value for entry C#Cc1cccc(Nc2c3cc(OCCOC)c(OCCOC)cc3nc[n+]2[Pt@SP2-2]([NH3+])([NH3+])[Cl])c1 [2a, cisplatin-erlotinib]
-- reply 90

----------
# Tested on: H292
# measurementProtocol: Anticancer activity (cytotoxicity) in NSCLC cell line
# Type: cell-based
# testSettings: Homo sapiens, NCI-H292, read-out: Anticancer activity (IC50) H292
Measured pIC50, listed per entry for reference.
pIC50 is defined as minus the log10 of a concentration measured in mol/L.

- compound: "C#Cc1cccc(Nc2ncnc3cc(OCCOC)c(OCCOC)cc23)c1"
  experimentalSystem: "H292"
  measuredParameter: "pIC50"
  testValue: 6.66

-- ask Form field: reported pIC50 of COc1cc2c(Nc3ccc(Br)cc3F)ncnc2cc1OCC1CCN(C)CC1 [Vandetanib, reference compound]
-- reply 5.20

----------
# Test system: K562
# measurementProtocol: Anticancer activity (cytotoxicity) in CML cell line
# Assay type: cell-based
# testSettings: CML cell line; Bcr-Abl positive; Table 1; read-out: Anticancer activity (IC50) K562
Listed here: items and their measured pIC50.
The read-out pIC50 is expressed as -log10 of concentration in moles per litre.

- compound: "Cc1ccc(NC(=O)c2ccc(CN3CCN(C)CC3)cc2)cc1Nc1nccc(-c2cccnc2)[n+]1[Pt-2]1([Cl])[NH2+]C2CCCCC2[NH2+]1 (stereo not shown)"
  pIC50: 5.64
- compound: "O=C1[O][Pt]2([NH][C@@H]3CCCC[C@H]3[NH]2)[O]C1=O"
  pIC50: 4.78
- compound: "N.N.[Cl][Pt][Cl] [Cisplatin]"
  pIC50: 4.70

-- ask Fill in: pIC50 of Cc1ccc(NC(=O)c2ccc(CN3CCN(C)CC3)cc2)cc1Nc1nccc(-c2cccnc2)[n+]1[Pt@SP3-2]([NH3+])([NH3+])[Cl] [1c, transplatin-imatinib] is ___
-- reply 5.98

----------
# experimentalSystem: SRMS (Homo sapiens, UniProt Q9H3Y6)
# Construct: purchased DiscoveRx (KINOMEscan service)
# Sequence (Q9H3Y6 whole entry): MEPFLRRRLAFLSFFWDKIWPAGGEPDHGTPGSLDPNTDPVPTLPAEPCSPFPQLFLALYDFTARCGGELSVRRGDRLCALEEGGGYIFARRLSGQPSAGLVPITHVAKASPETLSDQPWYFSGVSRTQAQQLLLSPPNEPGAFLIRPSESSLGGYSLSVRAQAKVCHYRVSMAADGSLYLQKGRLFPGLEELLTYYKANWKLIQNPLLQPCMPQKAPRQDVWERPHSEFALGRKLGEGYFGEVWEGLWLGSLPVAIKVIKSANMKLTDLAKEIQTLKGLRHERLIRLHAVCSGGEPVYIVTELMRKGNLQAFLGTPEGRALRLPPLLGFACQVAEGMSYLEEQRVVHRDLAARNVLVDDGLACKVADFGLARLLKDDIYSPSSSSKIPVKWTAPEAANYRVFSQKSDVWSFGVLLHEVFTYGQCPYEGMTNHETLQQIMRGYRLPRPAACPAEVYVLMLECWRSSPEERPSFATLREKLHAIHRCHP
# Assay type: binding
# testSettings: SRMS; 10 μM
measuredParameter: Percent control (%)
# output: bare number, implied unit %

- compound: "C#Cc1cccc(Nc2c3cc(OCCOC)c(OCCOC)cc3nc[n+]2[Pt@SP2-2]([NH3+])([NH3+])[Cl])c1 [2a, cisplatin-erlotinib]"
  Percent control / %: 94
- compound: "Cc1ccc(NC(=O)c2ccc(CN3CCN(C)CC3)cc2)cc1Nc1nccc(-c2cccnc2)[n+]1[Pt-2]1([Cl])[NH2+]C2CCCCC2[NH2+]1 (stereo not shown)"
  Percent control / %: 98
- compound: "COc1cc2c(Nc3ccc(Br)cc3F)[n+]([Pt-2]3([Cl])[NH2+]C4CCCCC4[NH2+]3)cnc2cc1OCC1CCN(C)CC1 (stereo not shown)"
  Percent control / %: 95

Proceeding to the next compound to report its Percent control.
-- ask What value of Percent control on SRMS (Homo sapiens, UniProt Q9H3Y6) does Cc1ccc(NC(=O)c2ccc(CN3CCN(C)CC3)cc2)cc1Nc1nccc(-c2cccnc2)n1 [Imatinib, reference compound] have?
-- reply 100

----------
# experimentalSystem: EPHA8 (Homo sapiens)
# Construct: purchased DiscoveRx KINOMEscan
# Sequence (P29322 28-1005): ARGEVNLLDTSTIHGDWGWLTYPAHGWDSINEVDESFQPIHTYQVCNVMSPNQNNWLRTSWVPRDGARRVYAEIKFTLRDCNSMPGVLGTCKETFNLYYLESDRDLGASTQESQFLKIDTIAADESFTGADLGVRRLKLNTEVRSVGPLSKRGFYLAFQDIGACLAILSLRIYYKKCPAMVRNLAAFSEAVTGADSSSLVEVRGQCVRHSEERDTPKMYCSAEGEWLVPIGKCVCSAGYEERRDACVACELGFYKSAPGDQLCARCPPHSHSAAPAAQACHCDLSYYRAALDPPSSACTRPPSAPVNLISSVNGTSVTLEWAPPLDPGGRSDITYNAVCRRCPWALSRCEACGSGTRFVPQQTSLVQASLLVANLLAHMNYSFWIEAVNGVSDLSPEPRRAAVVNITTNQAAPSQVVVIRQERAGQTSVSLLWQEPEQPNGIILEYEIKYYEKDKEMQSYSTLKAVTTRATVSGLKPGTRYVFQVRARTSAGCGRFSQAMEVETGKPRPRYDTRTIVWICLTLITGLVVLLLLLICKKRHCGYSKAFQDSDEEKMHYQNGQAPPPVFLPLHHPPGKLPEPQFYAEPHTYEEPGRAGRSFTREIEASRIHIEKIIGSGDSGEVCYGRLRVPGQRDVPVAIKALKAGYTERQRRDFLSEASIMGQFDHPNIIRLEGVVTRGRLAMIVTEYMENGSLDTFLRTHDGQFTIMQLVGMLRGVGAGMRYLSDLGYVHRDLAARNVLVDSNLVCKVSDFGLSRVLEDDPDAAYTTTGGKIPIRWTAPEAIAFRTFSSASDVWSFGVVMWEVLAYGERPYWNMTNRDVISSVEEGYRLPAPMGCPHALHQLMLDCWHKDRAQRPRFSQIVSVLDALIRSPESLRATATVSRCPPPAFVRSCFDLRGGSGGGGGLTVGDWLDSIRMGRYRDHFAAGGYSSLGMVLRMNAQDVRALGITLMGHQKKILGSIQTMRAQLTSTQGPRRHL
# Format: binding
# testSettings: EPHA8; 10 μM
measuredParameter: Percent control (%)
Write the value in % as a bare number.

-- ask Look up Percent control with EPHA8 (Homo sapiens) for this compound: COc1cc2c(Nc3ccc(Br)cc3F)[n+]([Pt-2]3([Cl])[NH2+]C4CCCCC4[NH2+]3)cnc2cc1OCC1CCN(C)CC1 (stereo not shown)
-- reply 6.8

-- ask // lookup Percent control | system=EPHA8 (Homo sapiens) | key= Cc1ccc(NC(=O)c2ccc(CN3CCN(C)CC3)cc2)cc1Nc1nccc(-c2cccnc2)[n+]1[Pt-2]1([Cl])[NH2+]C2CCCCC2[NH2+]1 (stereo not shown)
-- reply 68

-- ask Return Percent control measured with EPHA8 (Homo sapiens) given this compound: C#Cc1cccc(Nc2c3cc(OCCOC)c(OCCOC)cc3nc[n+]2[Pt@SP2-2]([NH3+])([NH3+])[Cl])c1 [2a, cisplatin-erlotinib]
-- reply 56

-- ask EPHA8 (Homo sapiens) / Percent control / Cc1ccc(NC(=O)c2ccc(CN3CCN(C)CC3)cc2)cc1Nc1nccc(-c2cccnc2)n1 [Imatinib, reference compound] : value?
-- reply 12.3

----------
# experimentalSystem: VEGFR2 (Homo sapiens)
# Construct: purchased DiscoveRx Corporation (KINOMEscan service)
# Assay type: binding
# testSettings: 10 μM
# reported Percent control; entries follow
API: value field is a number in %; no unit string.

See these solved cases before continuing.
- compound: "COc1cc2c(Nc3ccc(Br)cc3F)[n+]([Pt-2]3([Cl])[NH2+]C4CCCCC4[NH2+]3)cnc2cc1OCC1CCN(C)CC1 (stereo not shown)"
  Percent control [%]: 3.2
- compound: "C#Cc1cccc(Nc2c3cc(OCCOC)c(OCCOC)cc3nc[n+]2[Pt@SP2-2]([NH3+])([NH3+])[Cl])c1 [2a, cisplatin-erlotinib]"
  Percent control [%]: 98
- compound: "Cc1ccc(NC(=O)c2ccc(CN3CCN(C)CC3)cc2)cc1Nc1nccc(-c2cccnc2)n1 [Imatinib, reference compound]"
  Percent control [%]: 100

-- ask Given the entry Cc1ccc(NC(=O)c2ccc(CN3CCN(C)CC3)cc2)cc1Nc1nccc(-c2cccnc2)[n+]1[Pt-2]1([Cl])[NH2+]C2CCCCC2[NH2+]1 (stereo not shown) , report its measured Percent control.
-- reply 100

----------
# experimentalSystem: P-gp (Homo sapiens, UniProt P08183)
# measurementProtocol: in vitro
# testSettings: dog, MDCK-MDR1, pH 7.4
measuredParameter: Papp B→A at 120 min, 10 μM

-- ask Item: C#Cc1cccc(Nc2ncnc3cc(OCCOC)c(OCCOC)cc23)c1 [Erlotinib] Test system: P-gp (Homo sapiens, UniProt P08183) Read-out: Papp B→A at 120 min, 10 μM Value: ?
-- reply 74.2 ×10⁻⁶ cm/s

----------
# experimentalSystem: INSR (Homo sapiens)
# Construct: purchased DiscoveRx KINOMEscan
# Sequence (P06213 28-1382): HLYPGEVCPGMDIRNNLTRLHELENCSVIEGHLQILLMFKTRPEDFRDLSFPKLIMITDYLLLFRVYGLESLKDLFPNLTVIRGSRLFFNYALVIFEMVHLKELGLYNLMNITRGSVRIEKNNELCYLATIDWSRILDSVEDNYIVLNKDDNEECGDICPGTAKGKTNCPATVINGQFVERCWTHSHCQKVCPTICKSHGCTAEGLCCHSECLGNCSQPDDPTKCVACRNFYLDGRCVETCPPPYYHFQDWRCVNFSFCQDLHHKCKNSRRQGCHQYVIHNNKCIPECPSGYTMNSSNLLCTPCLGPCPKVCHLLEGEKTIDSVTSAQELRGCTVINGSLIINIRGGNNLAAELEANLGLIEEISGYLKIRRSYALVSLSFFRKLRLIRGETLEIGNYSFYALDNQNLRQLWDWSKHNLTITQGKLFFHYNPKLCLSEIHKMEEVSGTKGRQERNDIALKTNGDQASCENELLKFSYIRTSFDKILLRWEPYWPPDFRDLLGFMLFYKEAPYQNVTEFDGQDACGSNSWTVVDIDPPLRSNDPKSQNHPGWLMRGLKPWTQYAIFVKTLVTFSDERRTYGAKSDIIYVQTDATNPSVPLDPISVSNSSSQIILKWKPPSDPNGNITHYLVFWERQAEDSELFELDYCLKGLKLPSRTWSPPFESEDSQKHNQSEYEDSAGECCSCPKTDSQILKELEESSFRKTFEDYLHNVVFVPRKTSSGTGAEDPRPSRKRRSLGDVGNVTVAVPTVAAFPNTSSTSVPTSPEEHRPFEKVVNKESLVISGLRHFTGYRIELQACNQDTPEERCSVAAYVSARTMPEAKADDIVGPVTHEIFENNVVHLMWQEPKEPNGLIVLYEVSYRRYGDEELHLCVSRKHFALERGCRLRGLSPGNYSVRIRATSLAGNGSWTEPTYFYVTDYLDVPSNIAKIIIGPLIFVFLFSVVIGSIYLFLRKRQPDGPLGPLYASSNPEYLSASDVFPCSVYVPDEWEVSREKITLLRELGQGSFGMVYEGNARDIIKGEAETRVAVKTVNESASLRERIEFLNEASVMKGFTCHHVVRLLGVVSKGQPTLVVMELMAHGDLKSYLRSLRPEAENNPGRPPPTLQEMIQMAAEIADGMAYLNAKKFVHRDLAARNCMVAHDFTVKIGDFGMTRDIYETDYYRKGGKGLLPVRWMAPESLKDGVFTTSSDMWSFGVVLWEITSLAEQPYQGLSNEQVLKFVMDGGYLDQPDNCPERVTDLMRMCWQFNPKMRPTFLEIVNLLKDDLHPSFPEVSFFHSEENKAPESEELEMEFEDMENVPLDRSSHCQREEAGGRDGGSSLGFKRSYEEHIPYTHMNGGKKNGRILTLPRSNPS
# Format: binding
# testSettings: INSR; 10 μM
measuredParameter: Percent control (%)
Numeric only. Scale: %

-- ask State the recorded Percent control for this entry: Cc1ccc(NC(=O)c2ccc(CN3CCN(C)CC3)cc2)cc1Nc1nccc(-c2cccnc2)[n+]1[Pt-2]1([Cl])[NH2+]C2CCCCC2[NH2+]1 (stereo not shown)
-- reply 92

-- ask Entry Cc1ccc(NC(=O)c2ccc(CN3CCN(C)CC3)cc2)cc1Nc1nccc(-c2cccnc2)n1 [Imatinib, reference compound] : reported Percent control = ?
-- reply 100

-- ask Query: Percent control; subject: C#Cc1cccc(Nc2c3cc(OCCOC)c(OCCOC)cc3nc[n+]2[Pt@SP2-2]([NH3+])([NH3+])[Cl])c1 [2a, cisplatin-erlotinib]
-- reply 85

-- ask Look up Percent control for this compound: COc1cc2c(Nc3ccc(Br)cc3F)[n+]([Pt-2]3([Cl])[NH2+]C4CCCCC4[NH2+]3)cnc2cc1OCC1CCN(C)CC1 (stereo not shown)
-- reply 72
